We begin with a simple list: items and their reported EC50.
System: UniProt Q92633
Assay info: LPAR1 intracellular calcium mobilization assay (antagonist mode, FLIPR)
Format: cell-based
Assay conditions: CHO-K1 EDG2 cells expressing human LPAR1, LPA 18:2 at EC80 (100 nM), test compound 0.5 nM to 10 μM
Measure name: EC50

C[C@@H](OC(=O)Nc1c(-c2ccc(NC(=O)c3ccc(C#N)nc3)cn2)nnn1C)c1cccnc1Cl : 53.9 nM
C[C@@H](OC(=O)Nc1c(-c2ccc(NC(=O)C3CC4(C3)CC(F)(F)C4)cn2)nnn1C)c1cccnc1Cl : 38.1 nM
C[C@@H](OC(=O)Nc1c(-c2ccc(NC(=O)c3cnc(C(F)F)nc3)cn2)nnn1C)c1cccnc1Cl : 71.8 nM
C[C@@H](OC(=O)Nc1c(-c2ccc(NC(=O)[C@H]3[C@H](c4ccccc4)C3(F)F)cn2)nnn1C)c1cc(F)cnc1F (mixture of isomers) : 13 nM
COc1cc(C(=O)Nc2ccc(-c3nnn(C)c3NC(=O)O[C@H](C)c3cc(F)cnc3F)nc2)on1 : 86.6 nM
C[C@@H](OC(=O)Nc1c(-c2ccc(NC(=O)c3ccc(C(F)(F)F)nc3)cn2)nnn1C)c1cc(F)cnc1Cl : 33.5 nM
C[C@@H](OC(=O)Nc1c(-c2ccc(NC(=O)C3CC(C)(O)C3)cn2)nnn1C)c1cccnc1Cl (some centres unmarked) [Compound 108] : 420 nM
C[C@@H](OC(=O)Nc1c(-c2ccc(NC(=O)c3cnc(C(F)F)nc3)cn2)nnn1C)c1cc(F)cnc1F : 73.5 nM
C[C@@H](OC(=O)Nc1c(-c2ccc(NC(=O)[C@H]3CNC(=O)C3)cn2)nnn1C)c1cccnc1Cl : 1540 nM
C[C@H](C#N)C(=O)Nc1ccc(-c2nnn(C)c2NC(=O)O[C@H](C)c2cccnc2Cl)nc1 : 94.8 nM
COC(=O)Nc1ccc(-c2nnn(C)c2NC(=O)O[C@H](CF)c2ccccc2)cc1 : 1130 nM
CC(C)COC(=O)Nc1ccc(-c2nnn(C)c2NC(=O)O[C@H](C)c2cccnc2Cl)nc1 : 43.4 nM
C[C@@H](OC(=O)Nc1c(-c2ccc(NC(=O)c3ccncc3)cn2)nnn1C)c1cccnc1Cl : 134 nM
C[C@@H](OC(=O)Nc1c(-c2ccc(NC(=O)C3CC34CC4)cn2)nnn1C)c1cccnc1Cl (some centres unmarked) : 329 nM

----------
System: human LPAR1 (Homo sapiens (Human), UniProt Q92633)
Sequence (Q92633 whole entry): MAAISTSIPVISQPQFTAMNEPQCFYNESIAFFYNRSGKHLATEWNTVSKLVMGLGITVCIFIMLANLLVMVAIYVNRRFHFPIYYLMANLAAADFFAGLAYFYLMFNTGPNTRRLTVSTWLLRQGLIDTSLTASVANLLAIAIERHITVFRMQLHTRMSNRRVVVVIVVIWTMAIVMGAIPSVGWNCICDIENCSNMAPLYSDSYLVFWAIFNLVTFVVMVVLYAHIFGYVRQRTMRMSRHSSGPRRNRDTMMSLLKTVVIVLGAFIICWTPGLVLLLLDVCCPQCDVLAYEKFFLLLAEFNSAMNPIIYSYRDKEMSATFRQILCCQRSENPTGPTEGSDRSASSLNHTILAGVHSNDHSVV
Assay info: LPAR1 intracellular calcium mobilization assay (antagonist mode, FLIPR)
Format: cell-based
Assay conditions: CHO-K1 EDG2 cells expressing human LPAR1, LPA 18:2 at EC80 (100 nM), test compound 0.5 nM to 10 μM
Measure name: EC50 (nM)

C[C@@H](OC(=O)Nc1c(-c2ccc(NC(=O)[C@H]3C[C@@]4(CC4(F)F)C3)cn2)nnn1C)c1cccnc1Cl : 11.2
C[C@@H](OC(=O)Nc1c(-c2ccc(NC(=O)[C@@H]3CNC(=O)C3)cn2)nnn1C)c1cccnc1Cl : 880
C[C@@H](OC(=O)Nc1c(-c2ccc(NC(=O)c3cc(F)nc(F)c3F)cn2)nnn1C)c1cc(F)cnc1F : 203
C[C@@H](OC(=O)Nc1c(-c2ccc(NC(=O)C3(C#N)CC3)cn2)nnn1C)c1cc(F)cnc1Cl : 16.2

----------
System: human LPAR1 (Homo sapiens (Human), UniProt Q92633)
Assay info: LPAR1 intracellular calcium mobilization assay (antagonist mode, FLIPR)
Type: cell-based
Assay conditions: CHO-K1 EDG2 cells expressing human LPAR1, LPA 18:2 at EC80 (100 nM), test compound 0.5 nM to 10 μM
Measure name: log10 of EC50 (log10 of the value in nM)

C[C@@H](OC(=O)Nc1c(-c2ccc(NC(=O)c3cnc(N4CCOCC4)nc3)cn2)nnn1C)c1cc(F)cnc1F [Compound 284] : 2.96
C[C@@H](OC(=O)Nc1c(-c2ccc(NC(=O)N3CCC3)cn2)nnn1C)c1cccnc1Cl [Compound 188] : 2.66
CO[C@]1(C#N)C[C@H](C(=O)Nc2cnc(-c3nnn(C)c3NC(=O)O[C@H](C)c3cc(F)cnc3F)nc2)C1 [Compound 335] : 2.89
C[C@@H](OC(=O)Nc1c(-c2ccc(NC(=O)[C@H]3C[C@@H](O)C3)cn2)nnn1C)c1cccnc1Cl [Compound 155] : 2.87
C[C@@H](OC(=O)Nc1c(-c2ccc(NC(=O)[C@H]3[C@@H]4CC(F)(F)C[C@@H]43)cn2)nnn1C)c1cc(F)cnc1F (racemic) [Compound 230] : 1.43
C[C@@H](OC(=O)Nc1c(-c2ccc(NC(=O)C34CC(C(F)F)(C3)C4)cn2)nnn1C)c1cccnc1Cl [Compound 45] : 1.61
C[C@@H](OC(=O)Nc1c(-c2ccc(NC(=O)C3(C#N)CC3(C)C)cn2)nnn1C)c1cccnc1Cl (stereo partly drawn) [Compound 146] : 2.43
C[C@@H](OC(=O)Nc1c(-c2ccc(NC(=O)C3(CN)CC(F)(F)C3)cn2)nnn1C)c1cc(F)cnc1Cl [Compound 304] : 1.67
C[C@@H](OC(=O)Nc1c(-c2ccc(NC(=O)C3(C#N)CC3)cn2)nnn1C)c1cccnc1F [Compound 172] : 2.37
C[C@@H](OC(=O)Nc1c(-c2ncc(NC(=O)c3ccc(Cl)nc3)cc2F)nnn1C)c1cc(F)cnc1F [Compound 338] : 2.12
C[C@@H](OC(=O)Nc1c(-c2cnc(NC(=O)C34CC(F)(C3)C4)cn2)nnn1C)c1cc(F)cnc1Cl [Compound 333] : 2.34
COC(=O)Nc1ccc(-c2nnn(C)c2NC(=O)O[C@H](C)c2cccnc2Cl)cc1 [Compound 7] : 2.50
C[C@@H](OC(=O)Nc1c(-c2ccc(NC(=O)[C@H]3C[C@@H]3F)cn2)nnn1C)c1cccnc1Cl [Compound 52] : 2.79
C[C@@H](OC(=O)Nc1c(-c2ccc(NC(=O)[C@H]3C[C@H](NCC(F)(F)F)C3)cn2)nnn1C)c1cccnc1Cl [Compound 306] : 2.00
C[C@@H](OC(=O)Nc1c(-c2ccc(NC(=O)[C@H]3C[C@H]3F)cn2)nnn1C)c1cccnc1Cl [Compound 56] : 3.06
C[C@@H](OC(=O)Nc1c(-c2ccc(NC(=O)C34CC(C(F)(F)F)(C3)C4)cn2)nnn1C)c1cccnc1F [Compound 170] : 1.50
C[C@@H](OC(=O)Nc1c(-c2ccc(NC(=O)C34CC(Cl)(C3)C4)cn2)nnn1C)c1cccnc1Cl [Compound 82] : 1.31
C[C@@H](OC(=O)Nc1c(-c2ccc(NC(=O)[C@]3(F)C[C@@H](O)C3)cn2)nnn1C)c1cccnc1Cl [Compound 134] : 2.65
C[C@@H](OC(=O)Nc1c(-c2ccc(NC(=O)C3CC(=O)C3)cn2)nnn1C)c1cccnc1Cl [Compound 83] : 2.54
C[C@@H](OC(=O)Nc1c(-c2ccc(NC(=O)C34CC(C(F)(F)F)(C3)C4)cn2)nnn1C)c1cccnc1Cl [Compound 72] : 1.23
C[C@@H](OC(=O)Nc1c(-c2ccc(NC(=O)c3ccnc(F)c3F)cn2)nnn1C)c1cccnc1F [Compound 294] : 2.38
